Biological target: T1, M9
T1 construct: also called PD1 mutant M9
Assay: scFv-phage ELISA
measureName: OD490
Lab note: write the figure by itself, no unit.

The examples below pair each entry with its known result.
{"binder": "PD1-49A2 (antibody, V domains shown, scFv-phage in the screening ELISA; whole IgG in the other assays; also called Parent 49A2) VH: QVQLVESGGGVVQPGRSLRLSCAASGFTFSSYAMHWVRQAPGKGLEWVAVISYDGSNKYYADSVKGRFTISRDNPKNTLYLQMNSLRAEDTAVYYCTTTTFDSWGRGTLVTVSS VL: DIVMTQSPLSLPVTPGEPASISCRSSQSLFDSDDGNTYLDWYLQKPGQSPQLLIYTLSHRASGVPDRFSGSGSGTDFTLKISRVEAEDVGIYYCLQRMGFPYTFGQGTKVEIK", "measureName": "OD490", "valueObserved": 3.7}
{"binder": "PD1-45F4 (antibody, V domains shown, scFv-phage in the screening ELISA; later whole IgG) VH: QMQLVESGGGLVQPGRSLRLSCAASGFTFDDYAMHWVRQAPGQGLEWVSGISWNSNNIKYADSVKGRFTISRDNSKNSLYLQMNSLRAEDTAVYYCARGALTPLDVWGQGTPVTVSS VL: SYELTQAPSLSVSPGQTANIICSGDNLRTKYVSWYQQKPGQSPLLVIYQDTRRPSGIPARFSGSNSGNTATLTISGTQTRDESTYYCMTWDVDTTSMIFGGGTKLTVL", "measureName": "OD490", "valueObserved": 3.3}

--- query ---
Task: Given the binder PD1-41C9 (antibody, V domains shown, scFv-phage in the screening ELISA; whole IgG in the other assays) VH: QMQLVESGGGVVQPGRSLRLSCAASGFTFSSYAMHWVRQAPGKGLEWVAVISYDGSNKYYADSVKGRFTISRDNSKNTLYLQMNRLRSEDTAVYYCTTTTFDSWGQGTLITVSS VL: DIVMTQTPLSLPVTPGEAASISCRSSQSLLDSEDGNTYLDWYLQKPGQSPQLLIYTLSHRASGVPDRFSGSGSGTDFTLKISRVAAEDVGLYYCLQRMGFPYTFGQGTKLDIK , write its reported OD490.
Output: 3.3
